melting point overview

Below, 2 molecules whose answers are already recorded.
{"MOLECULE": "Cc1sc2nc(C=O)c(C)c(=O)n2c1C", "melting point": "170 to 173 °C"}
{"MOLECULE": "COC1=CC(=O)c2c(O)c(CO)c(CC(C)O)c(O)c2C1=O (centres undefined)", "melting point": "206 to 212 °C"}

Notebook: "CNC(=S)NS(=O)(=O)c1cc(CCNC(=O)c2cc(C(C)(C)C)ccc2OC)ccc1OCCOC" , melting point read as 61 °C

Entry "CN(C)CCc1c[nH]c2cc(N(S(=O)(=O)c3cc(Cl)cc(Cl)c3)S(=O)(=O)c3cc(Cl)cc(Cl)c3)ccc12" , melting point reported as 103 to 107 °C
